Experiment: Aqueous solubility of dronedarone hydrochloride
Type: physicochemical
Details: phosphate buffer with hydroxypropyl-β-cyclodextrin, aqueous with cosolvent or surfactant or cyclodextrin; 100 mmolar phosphate buffer and 5% of hydroxypropyl-β-cyclodextrin; read-out: solubility
Text: As indicated above, the above β-cyclodextrin derivatives, when they are used in combination with an appropriate buffer, for example a phosphate buffer, in the compositions of the invention, make it possible in particular to increase the aqueous solubility of dronedarone or of its pharmaceutically acceptable salts.
Counter-ions that a name gives are not always drawn.
parameter: solubility

[ask] Fill in the blank: the reported solubility of CCCCc1oc2ccc(NS(C)(=O)=O)cc2c1C(=O)c1ccc(OCCCN(CCCC)CCCC)cc1 [dronedarone hydrochloride] is ____.
[reply] ~6500 µg/mL
